- ASSAY_DETAILS: Stability of PSMA substrates in mouse plasma, 18 hour incubation, HPLC
- Format: in vitro ADME
- APPLIED_CONDITIONS: 18 hour incubation in mouse plasma
Below, each entry is listed alongside its reported % APA-Glu or -Asp.
The answer is to be given in %; state only the numeric part.

# COMPOUND, % APA-Glu or -Asp / %
records = [
    ("CN(Cc1cnc2nc(N)nc(N)c2n1)c1ccc(C(=O)N[C@@H](CCC(=O)N[C@@H](CCC(=O)N[C@@H](CCC(=O)N[C@@H](CC(=O)O)C(=O)N[C@@H](CCC(=O)O)C(=O)O)C(=O)O)C(=O)O)C(=O)O)cc1", 5),
    ("CN(Cc1cnc2nc(N)nc(N)c2n1)c1ccc(C(=O)N[C@@H](CC(=O)O)C(=O)N[C@@H](CCC(=O)N[C@@H](CCC(=O)N[C@@H](CC(=O)O)C(=O)N[C@@H](CCC(=O)O)C(=O)O)C(=O)O)C(=O)O)cc1", 2),
    ("CN(Cc1cnc2nc(N)nc(N)c2n1)c1ccc(C(=O)N[C@@H](CCC(=O)N[C@@H](CCC(=O)N[C@@H](CCC(=O)N[C@@H](CCC(=O)N[C@@H](CCC(N)=O)C(=O)O)C(=O)O)C(=O)O)C(=O)O)C(=O)O)cc1", 62),
    ("CN(Cc1cnc2nc(N)nc(N)c2n1)c1ccc(C(=O)N[C@@H](CCC(=O)N[C@@H](CCC(=O)N[C@@H](CCC(=O)N[C@@H](CCC(=O)N[C@@H](CC(=O)O)C(=O)O)C(=O)O)C(=O)O)C(=O)O)C(=O)O)cc1", 72),
]

The record that follows has no % APA-Glu or -Asp shown yet.
[in] Request the reported % APA-Glu or -Asp associated with CN(Cc1cnc2nc(N)nc(N)c2n1)c1ccc(C(=O)N[C@@H](CCC(=O)N[C@@H](CCC(=O)N[C@@H](CCC(=O)N[C@@H](CCC(=O)N[C@@H](CCC(=O)O)C(=O)O)C(=O)O)C(=O)O)C(=O)O)C(=O)O)cc1 [APA-Glu*Glu*Glu*Glu*Glu, reference compound]
[out] 68

* * *

- ASSAY_DETAILS: Stability of PSMA substrates in human plasma, 18 hour incubation, HPLC
- Assay type: in vitro ADME
- APPLIED_CONDITIONS: 18 hour incubation in human plasma; HPLC peak area of starting material over all peaks; read-out: % Prodrug Remaining
- Description: In order that the prodrugs can be administered systemically via the blood, their stability in sera must be sufficiently high to avoid hydrolysis or other degradative processes which may occur prior to the prodrugs reaching their target tissues. In addition to GGH activity, a human blood plasma glutamate carboxypeptidase (PGCP) that has significant sequence homology to PSMA and glutamate carboxypeptidase activity has been identified. […]
// remaining at 18 h lookup, one value per entry

# STRUCTURE_NOTATION, remaining at 18 h
measured = [
    ("CN(Cc1cnc2nc(N)nc(N)c2n1)c1ccc(C(=O)N[C@@H](CCC(=O)N[C@@H](CCC(=O)N[C@@H](CCC(=O)N[C@@H](CC(=O)O)C(=O)N[C@@H](CCC(=O)O)C(=O)O)C(=O)O)C(=O)O)C(=O)O)cc1", "57%"),
    ("CN(Cc1cnc2nc(N)nc(N)c2n1)c1ccc(C(=O)N[C@@H](CCC(=O)N[C@@H](CCC(=O)N[C@@H](CCC(=O)N[C@@H](CC(=O)O)C(=O)N[C@@H](CCC(N)=O)C(=O)O)C(=O)O)C(=O)O)C(=O)O)cc1", "76%"),
]

[in] Sample CN(Cc1cnc2nc(N)nc(N)c2n1)c1ccc(C(=O)N[C@@H](CC(=O)O)C(=O)N[C@@H](CCC(=O)O)C(=O)O)cc1 — what was its remaining at 18 h?
[out] 99%

[in] Subsequent entry: CN(Cc1cnc2nc(N)nc(N)c2n1)c1ccc(C(=O)N[C@@H](CCC(=O)N[C@@H](CCC(=O)N[C@@H](CCC(=O)N[C@@H](CCC(=O)N[C@@H](CCC(N)=O)C(=O)O)C(=O)O)C(=O)O)C(=O)O)C(=O)O)cc1
[out] 26%
